- assay info: Mouse brain uptake assay (pharmacokinetics and brain penetration after IV administration), 0-1 h, 3 time points
- Format: in vivo, Male CD1 Mice
- condition notes: male, CD1, mouse, brain and plasma, iv, 3 mg/kg; read-out: Kp (brain/plasma drug concentration ratio)
Please respond with class 1 when measured Kp is strictly beneath 2, and with class 0 in all other cases.

>>> class_assignment("Cc1cccnc1[C@@H]1CCC[C@H](c2nc3cccc(N4CCN(C)CC4)n3c2Cl)N1 [Compound I-146]")
"class 1"
>>> class_assignment("Cc1cccnc1[C@@H]1CCC[C@H](c2nc3cccc(N4CCC(N(C)C)CC4)n3c2Cl)N1C [Compound I-114]")
"class 1"
>>> class_assignment("Cc1cccnc1[C@@H]1CCC[C@H](c2nc3cccc(N4CCN(C)CC4)n3c2Cl)N1C [Compound I-18]")
"class 0"
>>> class_assignment("Cc1cccnc1[C@@H]1CCC[C@H](c2cn3c(-c4cccnc4)cccc3n2)N1C [Compound I-6]")
"class 1"
>>> class_assignment("Cc1cccnc1[C@@H]1CCC[C@H](c2nc3cccc(N4CCN(C(C)C)CC4)n3c2Br)N1C [Compound I-20]")
"class 0"
>>> class_assignment("Cc1cccnc1[C@@H]1CCC[C@H](c2cn3c(N4CCN(C)CC4)cccc3n2)N1 [Compound I-187]")
"class 1"
>>> class_assignment("CCN1CCN(c2cccc3nc([C@H]4CCC[C@@H](c5ncccc5C)N4C)c(Br)n23)CC1 [Compound I-19]")
"class 0"
>>> class_assignment("CN1CCN(c2cccc3nc([C@H]4CCC[C@@H](c5ncccc5Cl)N4)cn23)CC1 (racemic) [Compound I-149]")
"class 1"

---

Parameter: Papp B→A at 90 min, 10 μM. Scope: all listed entries.
- assay info: in vitro
- condition notes: human, Caco-2, pH 7.4
experimental readout: Papp B→A at 90 min, 10 μM

>>> recorded_measurement("Cc1cccnc1[C@@H]1CCC[C@H](c2nc3cccc(N4CCN(C)CC4)n3c2CO)N1C")
"10 to 30 ×10⁻⁶ cm/s"
>>> recorded_measurement("CN(C)C1CCN(c2cccc3nc([C@H]4CCC[C@@H](c5ncccc5Cl)N4C)c(CO)n23)CC1")
"10 to 30 ×10⁻⁶ cm/s"
>>> recorded_measurement("Cc1cccnc1[C@H]1CCC[C@@H](c2nc3ccccn3c2-c2ccncc2)N1")
"> 30 ×10⁻⁶ cm/s"
>>> recorded_measurement("Cc1cccnc1[C@@H]1CCC[C@H](c2nc3ccccn3c2COC2CCCN(C)C2)N1C (stereo partly shown)")
"10 to 30 ×10⁻⁶ cm/s"
>>> recorded_measurement("Cc1cccnc1[C@@H]1CCC[C@H](c2cn3c(N4CCNC5(CC5)C4)cccc3n2)N1")
"> 30 ×10⁻⁶ cm/s"
>>> recorded_measurement("Cc1c([C@@H]2CCC[C@H](c3ncccc3Cl)N2)nc2cccc(N3CCN(C)CC3)n12 (stereo in doubt)")
"10 to 30 ×10⁻⁶ cm/s"
>>> recorded_measurement("Cc1cccnc1[C@@H]1CCC[C@H](c2nc3ccccn3c2N2CCN(C)CC2)N1C")
"10 to 30 ×10⁻⁶ cm/s"

---

- assay info: MTD and pharmacokinetics and brain penetration after PO administration
- Type: in vivo, Male C57BL/6 Mice
- condition notes: male, C57BL/6, brain; Mouse, multiple administration, D5-300 mg/kg PO
experimental readout: Kp uu

>>> recorded_measurement("CN1CCN(c2cccc3nc([C@H]4CCC[C@@H](c5ncccc5Cl)N4)cn23)CC1 (single isomer, unassigned)")
2.12
